Consider the following compounds; for each one, report its Tmax.
Protocol details: Mouse pharmacokinetic test
Assay type: in vivo, ICR mice
Measurement conditions: plasma, po, 30 mg/kg, PO-30mpk, read-out: Tmax
Procedure: Formulation preparation: The dosing solutions were prepared on the day of administration. Six healthy male naive ICR mice weighing 25-30 g were selected and divided into two groups (intravenous and oral groups), with three mice in each group, and administered a single dose. […] Feeding was resumed 4 h after administration. Timing was initiated following intravenous and oral administration. […]
Answer with a number only, understood to be in h.

For this compound ( CC(C)(c1ccc(-c2ccc(OCc3ccc(-c4cnc(P(C)(C)=O)nc4)nc3)cc2)cc1)c1cc(Cl)c(OCCCl)c(C#N)c1 [Compound 276] ), measured Tmax is 4

For this compound ( CC(C)(c1ccc(-c2cnc(OCc3ccnc(N4CC5(CCS5(=O)=O)C4)n3)cn2)cc1)c1cc(Cl)c(OCCCl)c(C#N)c1 [Compound 376] ), measured Tmax is 4

For this compound ( CC(C)(c1ccc(-c2ccc(OCc3ccnc(N4CC[C@H](S(C)(=O)=O)C4)n3)cc2)cc1)c1cc(Cl)c(OCCCl)c(C#N)c1 [Compound 202] ), measured Tmax is 4

For this compound ( CC(C)(c1ccc(-c2ccc(OCc3ccnc(N4CC(NS(C)(=O)=O)C4)n3)cc2)cc1)c1cc(Cl)c(OCCCl)c(C#N)c1 [Compound 161] ), measured Tmax is 4

For this compound ( CC(C)(c1ccc(-c2ccc(OCc3ccnc(N4CC5(CC(S(C)(=N)=O)C5)C4)n3)cc2)cc1)c1cc(Cl)c(OCCCl)c(C#N)c1 (stereo not drawn) [Compound 245] ), measured Tmax is 5

For this compound ( CC(C)(c1ccc(-c2ccc(OCc3ccnc(P(C)(C)=O)n3)c(F)c2)cc1)c1cc(Cl)c(OCCCl)c(C#N)c1 [Compound 117] ), measured Tmax is 4

* * *

Protocol details: Mouse pharmacokinetic test
Format: in vivo, ICR mice
Measurement conditions: plasma, po, 30 mg/kg, PO-30mpk
Measured metric: AUC(0-inf) (µg·h/mL)
Answer with a number only, understood to be in µg·h/mL.

For this molecule ( CC(C)(c1ccc(-c2ccc(OCc3ccnc(N4CC(S(C)(=O)=O)C4)n3)cn2)cc1)c1cc(Cl)c(OCCCl)c(C#N)c1 [Compound 85] ), measured AUC(0-inf) is 480

For this molecule ( CC(C)(c1ccc(-c2ccc(C#Cc3cnc(P(C)(C)=O)nc3)cc2)cc1)c1cc(Cl)c(OCCCl)c(C#N)c1 [Compound 109] ), measured AUC(0-inf) is 870

For this molecule ( CC(C)(c1ccc(-c2ccc(OCc3ccc(-c4cnc(P(C)(C)=O)nc4)nc3)cc2)cc1)c1cc(Cl)c(OCCCl)c(C#N)c1 [Compound 276] ), measured AUC(0-inf) is 216

For this molecule ( CC(C)(c1ccc(-c2cnc(OCc3ccnc(N4CC([S@](C)(=N)=O)C4)n3)cn2)cc1)c1cc(Cl)c(OCCCl)c(C#N)c1 (single isomer, unassigned) [Compound 323A] ), measured AUC(0-inf) is 1390

For this molecule ( CC(C)(c1ccc(-c2ccc(OCc3ccnc(N4CC(CS(C)(=O)=O)C4)n3)cc2)cc1)c1cc(Cl)c(OCCCl)c(C#N)c1 [Compound 175] ), measured AUC(0-inf) is 320

For this molecule ( COc1c(Cl)cc(C(C)(C)c2ccc(-c3ccc(OCc4ccnc(P(C)(C)=O)n4)cc3)cc2)cc1C#N [Compound 237] ), measured AUC(0-inf) is 213

For this molecule ( CC(C)(c1ccc(-c2cnc(OCc3ccnc(N4CC(S(C)(=O)=O)C4)n3)cn2)cc1)c1cc(Cl)c(OCCCl)c(C#N)c1 [Compound 262] ), measured AUC(0-inf) is 648

For this molecule ( C[C@H](Cl)COc1c(Cl)cc(C(C)(C)c2ccc(-c3ccc(OCc4ccnc(P(C)(C)=O)n4)cc3)cc2)cc1C#N [Compound 283] ), measured AUC(0-inf) is 277

For this molecule ( CC(C)(c1ccc(-c2ccc(OCc3ccnc(N4CC5(COC5)C4)n3)cn2)cc1)c1cc(Cl)c(OCCCl)c(C#N)c1 [Compound 82] ), measured AUC(0-inf) is 171
